# EXPERIMENTAL PROTOCOL: NCI Yeast Anticancer Drug Screen. Data for the sgs1 mgt1 strain (AID 161);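 note: 0% = growth of cultures given vehicle only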
# CONDITION DESCRIPTION: S. cerevisiae sgs1 mgt1 strain, at 50.0 µM
The panel holds about 79,000 compounds, 15% with a hit somewhere; the sample as a whole holds those more often. Active and inactive are the calls of the source. Cut-off read from the data, not from the text of the source: active = growth inhibition above about 70%; inactive = the rest.
Please answer using one outcome listed in active, inactive

query: Please state the recorded outcome for this compound: CN(C)C(=Nc1nc(=[N+](C)C)ss1)N(C)C
result: active

query: Given Nc1nc(N)c2nc3c4ccccc4c4ccccc4c3nc2n1 , state the outcome it received in this test.
result: inactive

query: Recorded call for O=Nc1ccc(C=C2C(=O)C=CC2=O)cc1 ?
result: active

query: Which result was noted for this compound in the test: Nc1ncnc2c(C3OC(CO)C(O)C3O)scc12 (stereo not given)
result: inactive

query: Each compound tested received a call. Report the one for COC1CC2CCC(C)[C@](O)(O2)C(=O)C(=O)N2CCCCC2C(=O)OC(C(C)CC2CCC(O)C(OC)C2)CC(=O)C(C)C=C(C)C(OC(=O)CN(C)C)C(OC)C(=O)C(C)CC(C)/C=C/C=C/C=C\1C (stereo not given in full) .
result: active

---

I'd be grateful if you could share measured growth inhibition for these entries.
# EXPERIMENTAL PROTOCOL: NCI Yeast Anticancer Drug Screen. Data for the mlh1 rad18 strain (AID 175)
# CONDITION DESCRIPTION: S. cerevisiae mlh1 rad18 strain growth inhibition; at 5.0 µM (retest, dose inferred, filed as 0.5); hits give high values
This is part of a sample that, as a whole, favours compounds with a hit. Of some 79,000 tested, about 15% had one in any assay.
# number only, unit % dropped from output

query: Report growth inhibition for c1ccc2c(c1)CC1=C(O2)c2ccccc2OC1 please.
result: 6

query: Which value of growth inhibition has been reported for O=S(=O)(O)c1ccc2cc(N=Nc3c(O)ccc4ccccc34)ccc2c1 in the records?
result: 2

query: # query: growth inhibition of entry CN1CCN(CN2C(=O)C3C4C=CC(C3C2=O)C2C3C(=O)N(CN5CCN(C)CC5)C(=O)C3C42)CC1 (stereo unspecified)
result: -1

query: Sample CCC[CH2][Sn]1([CH2]CCC)[O]N=C(c2ccccc2)C(c2ccccc2)[O]1 (stereo unspecified) — what was its growth inhibition?
result: 12

query: If you can, please state the reported growth inhibition value of O=C(NN1CCOC1=O)OCCCl .
result: -1

query: # get_value(readout='growth inhibition', item= O=C(Nc1ccc(C(=O)O)c(O)c1)c1ccccc1 )
result: -3

query: Value lookup for growth inhibition; key = Cc1c(OCc2cccc3ccccc23)ccc2c(=O)cc(SCCN3CCOCC3)oc12
result: 7

query: // query growth inhibition value for entry NC(CC(=O)O)C(=O)O (stereo unspecified)
result: -3

query: Which growth inhibition is reported for this molecule? O=C1CSC(=S)N1c1ccc(Cl)c(C(F)(F)F)c1
result: 11

query: Sample COc1cc2c(c3c1/c(=N/N(C)C)c1ccccc1n3C)C=CC(C)(C)O2 — what was its growth inhibition?
result: 38

query: Returns the measured growth inhibition for the input molecule. Input: O=C1C(CN2CCCCC2)CCCC1CN1CCCCC1 (stereo unspecified)
result: -1

---

# EXPERIMENTAL PROTOCOL: NCI Yeast Anticancer Drug Screen. Data for the mlh1 rad18 strain (AID 175)
# CONDITION DESCRIPTION: S. cerevisiae mlh1 rad18 strain growth inhibition; at 50.0 µM
This is part of a sample that, as a whole, favours compounds with a hit. Of some 79,000 tested, about 15% had one in any assay. The source made the active and inactive calls. No stated cut-off is given here; in the data, active means growth inhibition above about 70%; inactive means the rest.
Just give me one of these, please: True = active, False = inactive

query: Would you mind telling me which call this test gave Oc1c(Cl)c(Cl)c(Cl)c2ccccc12 ?
result: True

query: Given O=[N+]([O-])C(/C=C(\Cl)[N+](=O)[O-])=C(Nc1ccccc1)Nc1ccccc1 , state the outcome it received in this test.
result: True

query: What was the test verdict on O=S(=O)(O)c1ccc(NN(c2c(O)ccc3ccccc23)S(=O)(=O)O)cc1 ?
result: False

query: Dear all, I need the recorded test outcome for COC(=O)c1nnn(-c2ccc(S(N)(=O)=O)cc2)c1N , thank you.
result: False

query: Could you check what this test reported for c1cc2c3c(cccc3c1)-c1cnccc1-2 ?
result: True

query: For NC(=O)NC(=O)C(Cc1ccc(Cl)cc1)c1ccccc1 (configuration not stated) , what call appears in the results of this test?
result: False

query: Recorded call for CN(C)c1ccc(/C=C/c2cc[n+](C)c3ccccc23)cc1 ?
result: True

query: In this assay, the call recorded for CCOC(=O)C(Cc1c[nH]c2cc([N+](=O)[O-])ccc12)NS(=O)(=O)c1ccc2ccccc2c1 (configuration not stated) was what?
result: True

query: Each compound tested received a call. Report the one for O=C1CSC(=S)N1c1ccc(F)c(F)c1 .
result: True

query: Call for entry CCCn1cnc2c(SCc3ccc(Cl)cc3)nc(N)nc21 :
result: True

query: // outcome(item) with item = COC1/C=C\C=C(/C)C(=O)Nc2cc3nc4ccc(Br)cc4oc-3c(c2=O)CC(C)CC(OC)C(O)C(C)/C=C(\C)C1OC(N)=O (configuration not stated)
result: True

query: How was Nc1cc2c(cc1Cl)[nH]c(=O)c1cc(Cl)ccc12 classified in this test?
result: False

query: Look up the recorded call for CC[N](CC)[Ge]([CH2]C)[CH2]C.C[CH2][Ge]([CH2]C)[CH2]C in this test.
result: True

query: Short answer needed: outcome of this test for O=C(CCC(=O)OCCOc1ccccc1)OCCOc1ccccc1 ?
result: False

query: Hi, do you know how c1ccc(C(c2ccccc2)n2ccnc2)cc1 came out in this test?
result: True

query: Answer briefly: the call reported for c1ccc(-c2cnc(-c3ccc(-c4ncc(-c5ccccc5)o4)cc3)o2)cc1 in this assay.
result: False

query: Hi, do you know how COc1ccc(/C=C/NC=O)cc1 came out in this test?
result: False

query: // return assay outcome for Nc1ccc2c(ccc3ccc4ccccc4c32)c1
result: True

query: Lab log entry: O=C1Nc2ccccc2C1(O)C/C(=N/O)c1ccc2ccccc2c1 (configuration not stated) — outcome as called in the assay?
result: False

query: How did this test come out for O=S(=O)(CC(Cl)c1ccccc1)c1nc2ccccc2s1 (configuration not stated) ?
result: False

query: Any idea what this test logged for OCc1ccccc1C(c1ccccc1)c1ccccc1 ?
result: True

query: What is the recorded call for this compound in the test? O=C(O)c1ccc2c(c1)Cc1cc([N+](=O)[O-])ccc1-2
result: True

query: Please indicate how the test categorized CC[N+](C)(C)c1ccccc1 .
result: False

query: # fetch the recorded call for CCOC(=O)c1c[nH]c2cc(C(F)(F)F)ccc2c1=O here
result: False

query: Dear all, I need the recorded test outcome for COc1c(CBr)c(CBr)c(OC)c2c1C(=O)c1ccccc1C2=O , thank you.
result: True

query: How was O=C1OC(c2cccnc2)OC(c2ccccc2)=C1C(=O)c1ccccc1 (configuration not stated) classified in this test?
result: True

query: What classification did Nc1cc2ccc(O)cc2c2ccccc12 end up with in this test?
result: True

query: Status in this test for CCSC1=C(C)C(=O)c2ccccc2C1=O ?
result: False

query: I'd appreciate the recorded outcome for Clc1c(C(Cl)(Cl)Cl)nsc1N1CCCCC1 from this test.
result: False

query: Please state the recorded outcome for this compound: O=C1C=CC(=O)C(C2OC(=O)C(Br)=C2Br)=C1 (configuration not stated)
result: False

query: Assay result, entry CC(=O)Nc1ccc(S(=O)(=O)N(CCO)CCO)cc1 — outcome?
result: True

query: Write down the call the test reported for this compound. Item: Nc1nc(N)c2nc3c4ccccc4c4ccccc4c3nc2n1
result: False

query: For CC(C)CCC[C@@H](C)[C@H]1CC[C@H]2[C@@H]3CC=C4N5CCCN=C5CC[C@]4(C)[C@H]3CC[C@]12C , which call appears in the assay record?
result: True

query: Could you check what this test reported for O=C(Nc1cc(-c2ccccc2)[nH]n1)c1ccccc1F ?
result: True

query: Status in this test for CN=c1sc2nc(C#N)c(C#N)nc2n1C ?
result: True

query: For this compound, state the assay outcome: CC(C)(Cc1nocc1C(C)(C)CC#N)c1cc(CC(C)(C)C2(C)OCCO2)no1
result: False

query: Which outcome was assigned to Cc1ccc(OC(=O)c2ccc(N)cc2O)cc1 in this test?
result: False

query: // param item: OC1(C2C=CC=C2)c2ccccc2C=Cc2ccccc21 ; yields the recorded call
result: True

query: Could you please tell me the result logged for O=C1C=CC(=O)c2c1ccc1c3ccccc3n(Cc3ccccc3)c21 in this assay?
result: False

query: Name the outcome recorded for Fc1ccc(NC(=S)SCc2ccc3c(c2)OCO3)cc1 in the assay.
result: True

query: Any idea what this test logged for O=[N+]([O-])c1c(Br)cc(Br)c2c1Nc1c(ccc(Cl)c1Cl)S2 ?
result: True

query: Query: recorded result category for CC1(C)C(c2ccccc2)=Nc2ccccc21 in this test
result: True

query: Just curious, what result did CCCCCCCCCCCCCC1=NCC(c2ccc3ccccc3c2)O1 (configuration not stated) get here?
result: False

query: What call does the record list for CCO/C(=C\C=O)C1CCC2C3CC=C4CC(OC(C)=O)CCC4(C)C3CCC12C (configuration not stated) ?
result: False

query: Returns: the outcome recorded for CCCCCCCCCCCCCCCCCCOCC(O)CO (configuration not stated) in this assay.
result: False

query: Hi team, can someone confirm the assay call for CC1CP(c2ccccc2)(c2ccccc2)(c2ccccc2)OC1(C(=O)c1ccccc1)c1ccccc1 (configuration not stated) ?
result: True

query: Which outcome was assigned to OC1CN(Cc2ccccc2)C[C@@H]1O (some centres not stated) in this test?
result: False

All figures here come from PubChem BioAssay (NCI).
